measured_on: T1, CD81 (UniProt P60033 1-236, limits assumed)
T1 construct: whole, on cells; also called CD81 receptor
T1 sequence (looked up): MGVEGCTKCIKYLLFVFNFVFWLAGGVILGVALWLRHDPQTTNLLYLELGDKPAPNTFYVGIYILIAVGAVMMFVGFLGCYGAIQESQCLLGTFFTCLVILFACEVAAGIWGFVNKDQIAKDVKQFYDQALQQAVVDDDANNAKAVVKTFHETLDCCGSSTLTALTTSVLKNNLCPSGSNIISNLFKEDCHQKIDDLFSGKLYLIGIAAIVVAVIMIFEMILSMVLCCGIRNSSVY
run_description: cell ELISA;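 further: antibody binding to HuH7 cells expressing CD81 versus a CD81-negative HuH7 control line, bound antibody detected by secondary reagent, absorbance at 450 nm with 620 nm reference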
Label label 1 when ELISA data < 0.2; otherwise label 0.

# binder, class_assignment
rows = [
    ("CD81K04 HC JA_GG-13-hVH_1_69 / LC GG-06-hVK_1_39 (antibody, V domains shown, human constant region) VH: QVQLVQSGAEVKKPGSSVKVSCKASGGTFSSSWMNWVRQAPGQGLEWMGRIYSGDGDAIYAQKFQGRVTITADESTSTAYMELSSLRSEDTAVYYCAREGKTGDLLLRSWGQGTLVTVSS VL: DIQMTQSPSSLSASVGDRVTITCRASKSVSTSIYSYLNWYQQKPGKAPKLLIYYASYLQSGVPSRFSGSGSGTDFTLTISSLQPEDFATYYCQHSREFPYTFGQGTKLEIK", "label 1"),
    ("CD81K04 HC GG-01-hVH_5_51 / LC GG-06-hVK_1_39 (antibody, V domains shown, human constant region) VH: EVQLVQSGAEVKKPGESLKISCKGSGYSFSSSWMNWVRQMPGKGLEWMGRIYSGDGDAIYSPSFQGQVTISADKSISTAYLQLSSLKASDTAMYYCAREGKTGDLLLRSWGQGTLVTVSS VL: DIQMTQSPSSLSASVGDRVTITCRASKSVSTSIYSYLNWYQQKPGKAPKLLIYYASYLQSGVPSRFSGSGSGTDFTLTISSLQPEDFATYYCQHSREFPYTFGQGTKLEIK", "label 1"),
    ("CD81K04 HC K04_JA-13-hVH_1_3 / LC JA_GG-08-hVK_4_1 (antibody, V domains shown, human constant region) VH: QVQLVQSGAEVKKPGASVKVSCKASGYTFSSSWMNWVRQAPGQRLEWMGRIYSGDGDAIYNGKFKGRVTITRDTSASTAYMELSSLRSEDTAVYYCAREGKTGDLLLRSWGQGTLVTVSS VL: DIVMTQSPDSLAVSLGERATINCKSSKSVSTSIYSYMHWYQQKPGQPPKLLIKYASYLESGVPDRFSGSGSGTDFTLTISSLQAEDVAVYYCEHSREFPFTFGQGTKLEIK", "label 0"),
    ("CD81K04 HC JA_GG-13-hVH_1_69 / LC GG-05-hVK_3_11 (antibody, V domains shown, human constant region) VH: QVQLVQSGAEVKKPGSSVKVSCKASGGTFSSSWMNWVRQAPGQGLEWMGRIYSGDGDAIYAQKFQGRVTITADESTSTAYMELSSLRSEDTAVYYCAREGKTGDLLLRSWGQGTLVTVSS VL: EIVLTQSPATLSLSPGERATLSCRASKSVSTSIYSYLHWYQQKPGQAPRLLIYYASNRETGIPARFSGSGSGTDFTLTISSLEPEDFAVYYCQHSREFPFTFGQGTKLEIK", "label 0"),
    ("CD81K04 HC JA_GG-15-hVH_1_3 / LC CD81K04 (antibody, V domains shown, human constant region) VH: QVQLVQSGAEVKKPGASVKVSCKASGYTFSSSWMNWVRQAPGQRLEWMGRIYSGDGDAIYNGKFKGRVTITADTSASTAYMELSSLRSEDTAVYYCAREGKTGDLLLRSWGQGTLVTVSS VL: DIVLTQSPASLSVSLGQRATISCRASKSVSTSIYSYMHWYQQKPGQPPKLLIKYASYLESGVPARFSGSGSGTDFTLNIHPVEEEDAATYYCEHSREFPFTFGTGTKLEIK", "label 0"),
    ("CD81K04 HC GG-03-hVH_1_69 / LC JA_GG-07-hVK_7_3 (antibody, V domains shown, human constant region) VH: QVQLVQSGAEVKKPGSSVKVSCKASGYTFSSSWMNWVRQAPGQGLEWMGRIYSGDGDAIYAQKFQGRVTITADESTSTAYMELSSLRSEDTAVYYCAREGKTGDLLLRSWGQGTLVTVSS VL: DIVLTQSPASLAVSPGQRATITCRASKSVSTSIYSYMHWYQQKPGQPPKLLIKYASNKDTGVPARFSGSGSGTDFTLTINPVEANDAANYYCLHSREFPYTFGQGTKLEIK", "label 1"),
    ("CD81K04 HC K04_JA-13-hVH_1_3 / LC JA_GG-07-hVK_7_3 (antibody, V domains shown, human constant region) VH: QVQLVQSGAEVKKPGASVKVSCKASGYTFSSSWMNWVRQAPGQRLEWMGRIYSGDGDAIYNGKFKGRVTITRDTSASTAYMELSSLRSEDTAVYYCAREGKTGDLLLRSWGQGTLVTVSS VL: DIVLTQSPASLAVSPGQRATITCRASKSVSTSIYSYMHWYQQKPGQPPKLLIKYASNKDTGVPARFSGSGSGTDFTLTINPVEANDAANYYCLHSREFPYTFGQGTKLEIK", "label 0"),
    ("CD81K04 HC K04_JA_GG-17-hVH_1_3 / LC JA_GG-10-hVK_4_1 (antibody, V domains shown, human constant region) VH: QVQLVQSGAEVKKPGASVKVSCKASGYTFSSSWMNWVRQAPGQRLEWMGRIYSGDGDTIYSQKFQGRVTITADTSASTAYMELSSLRSEDTAVYYCAREGKTGDLLLRSWGQGTLVTVSS VL: DIVMTQSPDSLAVSLGERATINCRASKSVSTSIYSYMHWYQQKPGQPPKLLIKYASYLESGVPDRFSGSGSGTDFTLTISSLQAEDVAVYYCEHSREFPFTFGQGTKLEIK", "label 0"),
    ("CD81K04 HC JA_GG-14-hVH_1_69 / LC GG-06-hVK_1_39 (antibody, V domains shown, human constant region) VH: QVQLVQSGAEVKKPGSSVKVSCKASGYTFSSSWMNWVRQAPGQGLEWMGRIYSGDGDAIYNGKFKGKATITADESTSTAYMELSSLRSEDTAVYYCAREGKTGDLLLRSWGQGTLVTVSS VL: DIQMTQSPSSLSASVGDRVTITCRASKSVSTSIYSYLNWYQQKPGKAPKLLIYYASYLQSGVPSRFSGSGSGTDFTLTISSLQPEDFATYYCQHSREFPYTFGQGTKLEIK", "label 1"),
    ("CD81K04 HC GG-02-hVH_1_69 / LC JA_GG-08-hVK_4_1 (antibody, V domains shown, human constant region) VH: QVQLVQSGAEVKKPGSSVKVSCKASGYTFSSSWMNWVRQAPGQGLEWMGRIYSGDGDAIYNQKFQGRVTITADESTSTAYMELSSLRSEDTAVYYCAREGKTGDLLLRSWGQGTLVTVSS VL: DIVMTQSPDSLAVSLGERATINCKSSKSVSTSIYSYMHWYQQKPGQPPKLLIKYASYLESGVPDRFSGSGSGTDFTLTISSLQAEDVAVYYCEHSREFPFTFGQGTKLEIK", "label 0"),
]
